Provide the recorded binding signal for the entries that follow.
Molecular target: T1, RBFOX1 RRM (Homo sapiens, UniProt Q9NWB1 109-208)
T1 sequence: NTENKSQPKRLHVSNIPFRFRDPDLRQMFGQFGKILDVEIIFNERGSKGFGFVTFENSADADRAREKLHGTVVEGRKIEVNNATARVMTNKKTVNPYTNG
Test: EMSA; HiTS-Eq, 1 nM pool, 10 min; buffer printed only for the single-RNA assays: 10 mM Tris pH 7.5, 150 mM NaCl, 3.4 mM EDTA, 0.001% NP-40, 30 C
Details: tags: His6 N-terminal (pET28a); label: 5' 32P
In all, about 16,000 sequences were measured (“ka relative to ugcaugu”: median about 0.0091, highest 2% from about 0.032 on). The full list was thinned out, with the highest values kept by preference.

binding signal for ACGCUGG (DNA:RNA) RNA: GGGAGACCGGAAUUCAGAUUGUCCACGCUGGUUAAAUCCCGUCGUAGCCACCA DNA 1: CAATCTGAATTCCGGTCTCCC DNA 2: TGGTGGCTACGACGGGATT is 0.0175 KA relative to UGCAUGU

The binder identified as UCACAAA (DNA:RNA) RNA: GGGAGACCGGAAUUCAGAUUGUCCUCACAAAUUAAAUCCCGUCGUAGCCACCA DNA 1: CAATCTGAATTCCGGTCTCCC DNA 2: TGGTGGCTACGACGGGATT registered its binding signal at 0.00202 KA relative to UGCAUGU

In plain terms, ACAACCU (DNA:RNA) RNA: GGGAGACCGGAAUUCAGAUUGUCCACAACCUUUAAAUCCCGUCGUAGCCACCA DNA 1: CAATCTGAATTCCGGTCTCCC DNA 2: TGGTGGCTACGACGGGATT has a documented binding signal of 0.000511 KA relative to UGCAUGU

The recorded binding signal for entry UGAACGA (DNA:RNA) RNA: GGGAGACCGGAAUUCAGAUUGUCCUGAACGAUUAAAUCCCGUCGUAGCCACCA DNA 1: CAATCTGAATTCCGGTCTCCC DNA 2: TGGTGGCTACGACGGGATT equals 0.0199 KA relative to UGCAUGU

Noted for UAGUACG (DNA:RNA) RNA: GGGAGACCGGAAUUCAGAUUGUCCUAGUACGUUAAAUCCCGUCGUAGCCACCA DNA 1: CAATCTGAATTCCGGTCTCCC DNA 2: TGGTGGCTACGACGGGATT : its binding signal reads 0.0135 KA relative to UGCAUGU

binding signal reading for GUCAGAA (DNA:RNA) RNA: GGGAGACCGGAAUUCAGAUUGUCCGUCAGAAUUAAAUCCCGUCGUAGCCACCA DNA 1: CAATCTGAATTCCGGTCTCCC DNA 2: TGGTGGCTACGACGGGATT : 0.0136 KA relative to UGCAUGU

Entry GGGAGAA (DNA:RNA) RNA: GGGAGACCGGAAUUCAGAUUGUCCGGGAGAAUUAAAUCCCGUCGUAGCCACCA DNA 1: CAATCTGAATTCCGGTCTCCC DNA 2: TGGTGGCTACGACGGGATT , binding signal reported as 0.0327 KA relative to UGCAUGU

Briefly, binding signal measured for GGGAAGA (DNA:RNA) RNA: GGGAGACCGGAAUUCAGAUUGUCCGGGAAGAUUAAAUCCCGUCGUAGCCACCA DNA 1: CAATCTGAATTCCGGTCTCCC DNA 2: TGGTGGCTACGACGGGATT : 0.0349 KA relative to UGCAUGU

# binding signal (binder: GAACGUU (DNA:RNA) RNA: GGGAGACCGGAAUUCAGAUUGUCCGAACGUUUUAAAUCCCGUCGUAGCCACCA DNA 1: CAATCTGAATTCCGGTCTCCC DNA 2: TGGTGGCTACGACGGGATT ) is 0.0166 KA relative to UGCAUGU
